biological target: JAK1 (Homo sapiens (Human), UniProt P23458); assay: Jak biochemical HTRF assay, JAK1; details: recombinant purified GST-tagged catalytic domain; HTRF format; [ATP] 31.8 μM
Sequence (P23458 875-1153): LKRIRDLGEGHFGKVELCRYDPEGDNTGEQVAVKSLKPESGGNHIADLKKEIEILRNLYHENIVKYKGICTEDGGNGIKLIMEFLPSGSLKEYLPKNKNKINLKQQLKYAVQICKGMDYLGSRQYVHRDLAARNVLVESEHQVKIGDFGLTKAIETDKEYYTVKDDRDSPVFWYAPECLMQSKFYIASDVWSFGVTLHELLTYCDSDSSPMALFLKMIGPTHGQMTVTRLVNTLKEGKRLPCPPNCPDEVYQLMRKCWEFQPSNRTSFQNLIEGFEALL
Experimental endpoint: pIC50
Answers are plain numbers, as −log10 of the molar value.

Some solved entries appear below for comparison.
                                   molecule  experimental_endpoint  measurement
0  CC1(COC(=O)N2CC[C@@H](C#N)C(n3cc(C(N)=O)c(Nc4ccc(F)cc4)n3)C2)CC1 (mixture of isomers)                  pIC50         8.30
1  N#C[C@@H]1CN(C(=O)OCCc2ccccc2)CC[C@@H]1n1cc(C(N)=O)c(Nc2ccc(F)cc2)n1 (racemic)                  pIC50         6.39
2  N#C[C@@H]1CN(Cc2ccon2)CC[C@H]1n1cc(C(N)=O)c(Nc2ccc(F)cc2)n1 (racemic)                  pIC50         8.52

Provide pIC50 for all items below, preserving their order.
1. N#C[C@@H]1CCN(Cc2cscn2)C[C@H]1n1cc(C(N)=O)c(Nc2ccc(F)cc2)n1 (racemic)
2. N#C[C@H]1CCNCC1n1cc(C(N)=O)c(Nc2ccc(F)cc2)n1 (mixture of isomers)

Response line:
1. 8.70
2. 7.89

Provide pIC50 for all items below, preserving their order.
1. N#C[C@@H]1CN(C(=O)OCC(F)(F)CO)CC[C@H]1n1cc(C(N)=O)c(Nc2ccc(F)cc2)n1 (racemic)
2. Cc1c(CN2CC[C@@H](C#N)[C@H](n3cc(C(N)=O)c(Nc4ccc(F)cc4)n3)C2)cnn1C (racemic)

Response line:
1: 8.30; 2: 9.00

====

biological target: JAK1 (Homo sapiens (Human), UniProt P23458); experiment: Jak biochemical HTRF assay, JAK1; conditions: recombinant purified GST-tagged catalytic domain; HTRF format; [ATP] 31.8 μM
For each of the compounds below, state its pIC50.
Give bare numbers, as −log10 of the molar value.

In [3]: df
Out[3]:
                                   compound  measurement
0  CC(C)(C#N)COC(=O)N1CC[C@@H](n2cc(C(N)=O)c(Nc3ccc(F)cc3)n2)[C@H](C#N)C1 (racemic) [Example 5-6]         7.82
1  Cn1ccc(CN2CC[C@@H](n3cc(C(N)=O)c(Nc4ccc(F)cc4)n3)[C@H](C#N)C2)n1 (racemic) [Example 6-26]         7.77
2  N#C[C@@H]1CCOC[C@H]1n1cc(C(N)=O)c(Nc2ccccc2)n1 (single isomer, unassigned) [Example 9-38]         9.52

Fill in pIC50 for each of the 3 compounds listed.
1. N#CCC1(COC(=O)N2CC[C@H](n3cc(C(N)=O)c(Nc4ccc(F)cc4)n3)[C@H](C#N)C2)CC1 (racemic) [Example 5-64]
2. CC(OC(=O)N1CC[C@@H](n2cc(C(N)=O)c(Nc3ccc(F)cc3)n2)[C@H](C#N)C1)C1CC1 (mixture of isomers) [Example 5-35]
3. CC1=NOC(CN2CC[C@@H](C#N)[C@H](n3cc(C(N)=O)c(Nc4ccc(F)cc4)n3)C2)C1 (mixture of isomers) [Example 6-20]

Response line:
[6.36, 7.72, 8.22]

For each of the items listed, what is its pIC50?
1. Cc1cc(CN2CC[C@@H](C#N)[C@H](n3cc(C(N)=O)c(Nc4ccc(F)cc4)n3)C2)no1 (racemic) [Example 6-14]
2. N#C[C@@H]1CNCC[C@H]1n1cc(C(N)=O)c(Nc2ccc(F)cc2)n1 (racemic) [Example 3-2]
3. N#C[C@@H]1CCN(Cc2cccnc2F)C[C@H]1n1cc(C(N)=O)c(Nc2ccc(F)cc2)n1 (racemic) [Example 6-17]
4. N#C[C@@H]1CN(C(=O)OC2COC2)CC[C@@H]1n1cc(C(N)=O)c(Nc2ccc(F)cc2)n1 (racemic) [Example 5-57]
5. Cc1ncoc1CN1CC[C@@H](C#N)[C@H](n2cc(C(N)=O)c(Nc3ccc(F)cc3)n2)C1 [Example 7-2]

Response line:
[8.40, 8.15, 9.00, 6.53, 9.22]
